pIC50 by entry:
System: MCF7
Assay: Cytotoxicity against human MCF7 cells after 48 hrs by sulforhodamine B assay
Format: functional, cell-based
Details: MCF7, 48 h
By convention, pIC50 is the negative base-10 log of a molar concentration.

// below: answered compounds
>>> measured("Cc1nn(-c2ccccc2)c(N2CCN(C)CC2)c1/C=N/Nc1nc2ccccc2nc1O")
5.00
>>> measured("Cc1nn(-c2ccccc2)c(N2CCCCC2)c1/C=N/Nc1nc2ccccc2nc1O")
4.89
>>> measured("Cc1nn(-c2ccccc2)c(N2CCNCC2)c1/C=N/Nc1nc2ccccc2nc1O")
4.79

GET pIC50 where system = MCF7 and item = Cc1nn(-c2ccccc2)c(OC2CCCC2)c1/C=N/Nc1nc2ccccc2nc1O 4.50
